B1: Gamma-crystallin S, residues 96 to 176; numbered along this chain, P22914 (parent)
chain: IQIFEKGDFSGQMYETTEDCPSIMEQFHMREIHSCKVLEGVWIFYELPNYRGRQYLLDKKEYRKPIDWGAASPAVQSFRRI

# Variants of: B1
# METHOD: abundance fitness (aPCA) (normalised: wild type 0, dead -1); higher = more abundant; growth selection in yeast, the domain comes from the species named
# CONDITION_DESCRIPTION: Homo sapiens
OBSERVATION_TYPE: abundance fitness
One number for each entry.

VARIANT_ANNOTATION | OBSERVATION_TYPE | MEASURED_VALUE
S10Q | abundance fitness | 0.022
F78I | abundance fitness | -0.228
E61L | abundance fitness | -0.135
Y14W | abundance fitness | -0.056
Y55W | abundance fitness | 0.014

Would you mind giving abundance fitness for every variant in the list below?
1. G52S
2. F27R
3. E5Y
4. E15G
5. T17G
6. S77G
7. C20F
8. C35L

Given back:
1. -0.457
2. 0.02
3. 0.083
4. -0.044
5. -0.013
6. -0.35
7. -0.222
8. 0.102

Would you mind giving abundance fitness for every variant in the list below?
1. P65T
2. T16Y

Given back:
1: 0.059; 2: 0.018

Would you mind giving abundance fitness for every variant in the list below?
1. P21A
2. R79V
3. V41P

Given back:
1: -0.043; 2: -0.596; 3: -0.051
